Experiment: Comparison of exposure of released alvocidib to parent prodrug exposure
Format: in vivo
Conditions: expressed as a percentage of the released alvocidib exposure
recorded_endpoint: exposure of the parent prodrug

See these solved cases before continuing.
CC(C)C(=O)O[C@@H]1CN(C)CC[C@@H]1c1c(O)cc(O)c2c(=O)cc(-c3ccccc3Cl)oc12 = 3%
CCOC(=O)O[C@@H]1CN(C)CC[C@@H]1c1c(O)cc(O)c2c(=O)cc(-c3ccccc3Cl)oc12 = 2%
CCCCCCC(=O)O[C@@H]1CN(C)CC[C@@H]1c1c(O)cc(O)c2c(=O)cc(-c3ccccc3Cl)oc12 = not detected
CCCCC(=O)O[C@@H]1CN(C)CC[C@@H]1c1c(O)cc(O)c2c(=O)cc(-c3ccccc3Cl)oc12 = not detected

Next:
Name the recorded exposure of the parent prodrug for CN1CC[C@H](c2c(O)cc(O)c3c(=O)cc(-c4ccccc4Cl)oc23)[C@H](OC(=O)CN)C1 .
not detected

* * *

Experiment: Pharmacokinetic testing of representative compounds in CD-1 mice, oral dosing
Assay type: in vivo
Settings: mouse, in vivo, po, dosed orally 10 mg/kg, analyte = dosed prodrug, mean ± SD, nd = none detected, read-out: Half Life, analyte: prodrug compound (converted)
Experimental: Representative compounds were tested for pharmacokinetic activity in CD-1 mice. Mice were dosed orally with 10 mg/kg of each representative compound as well as alvocidib. The results in Table 3 show the tested compounds afforded high exposure of released alvocidib and no apparent exposure of the prodrug compounds. Additional results are shown in Tables 4 and 5, including use of alvocidib.HCl as a control: […]
recorded_endpoint: half-life (h)
Express your answer in h, writing the number without its unit.

Name the recorded half-life for CCNC(=O)O[C@@H]1CN(C)CC[C@@H]1c1c(O)cc(O)c2c(=O)cc(-c3ccccc3Cl)oc12 .
2.1

Name the recorded half-life for CNC(=O)O[C@@H]1CN(C)CC[C@@H]1c1c(O)cc(O)c2c(=O)cc(-c3ccccc3Cl)oc12 .
2

Name the recorded half-life for CCOC(=O)O[C@@H]1CN(C)CC[C@@H]1c1c(O)cc(O)c2c(=O)cc(-c3ccccc3Cl)oc12 .
3.8

Name the recorded half-life for COC(=O)O[C@@H]1CN(C)CC[C@@H]1c1c(O)cc(O)c2c(=O)cc(-c3ccccc3Cl)oc12 .
4.2

* * *

Assay: Pharmacokinetic testing of representative compounds in CD-1 mice, oral dosing
Format: in vivo
Details: dosed orally 10 mg/kg, analyte = dosed prodrug, mean ± SD, nd = none detected
recorded_endpoint: AUCLast, analyte: prodrug compound

Name the recorded AUCLast, analyte: prodrug compound for COC(=O)O[C@@H]1CN(C)CC[C@@H]1c1c(O)cc(O)c2c(=O)cc(-c3ccccc3Cl)oc12 .
238.3 ± 43.9 ng · h/mL or ng · h/G

Name the recorded AUCLast, analyte: prodrug compound for CNC(=O)O[C@@H]1CN(C)CC[C@@H]1c1c(O)cc(O)c2c(=O)cc(-c3ccccc3Cl)oc12 .
594.7 ± 143.7 ng · h/mL or ng · h/G

Name the recorded AUCLast, analyte: prodrug compound for CCOC(=O)O[C@@H]1CN(C)CC[C@@H]1c1c(O)cc(O)c2c(=O)cc(-c3ccccc3Cl)oc12 .
405.4 ± 215.6 ng · h/mL or ng · h/G

Name the recorded AUCLast, analyte: prodrug compound for CCNC(=O)O[C@@H]1CN(C)CC[C@@H]1c1c(O)cc(O)c2c(=O)cc(-c3ccccc3Cl)oc12 .
262.2 ± 27.8 ng · h/mL or ng · h/G

Origin of measurements: patent US11279694B2
